# test_target: T1, human CD40 extracellular domain with C-terminal His-AviTag (human, UniProt P25942 21-193)
# T1 construct: not shown: C-terminal His-AviTag
# T1 sequence (P25942 21-193): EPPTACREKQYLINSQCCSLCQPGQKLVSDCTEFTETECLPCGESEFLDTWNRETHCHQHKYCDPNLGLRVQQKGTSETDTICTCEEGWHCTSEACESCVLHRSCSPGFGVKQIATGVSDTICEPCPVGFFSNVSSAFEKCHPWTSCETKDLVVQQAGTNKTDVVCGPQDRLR
# assay: SPR, antibody captured, CD40 ECD analyte;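 further: biacore SPR at 25 °C in PBS-T pH 7.4, CD40 ECD analyte from 300 nM in 1:3 series, 300 s association, up to 1200 s dissociation, double-referenced, Langmuir 1:1 fit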
parameter: Kd (nM)

binder: P1AE0400, humanized anti-CD40 antibody VH2a/VL2a, huIgG1_LALA_PG (antibody, V domains shown, also called VL2a/VH2a) VH: EVQLLESGGGLVQPGGSLRLSCAASGYSFTGYYIHWVRQAPGKGLEWVGRVIPNAGGTSYNQKFKGRFTISVDNSKNTAYLQMNSLRAEDTAVYYCAREGIYWWGQGTTVTVSS VL: DIQMTQSPSSLSASVGDRVTITCRSSQSLVHSNGNTFLHWYQQKPGKAPKLLIYTVSNRFSGVPSRFSGSGSGTDFTLTISSLQPEDFATYFCSQTTHVPWTFGGGTKVEIKR
assay_value: 4.2
--
binder: P1AE1005, humanized anti-CD40 antibody VH1b/VL1d, huIgG1_LALA_PG (antibody, V domains shown, huIgG1 with effector silent Fc (P329G, L234A, L235A)) VH: QVQLVQSGAEVKKPGASVKVSCKASGYSFTGYYIHWVRQAPGKSLEWMGRVIPNAGGTSYNQKFKGRVTLTVDKSISTAYMELSRLRSDDTAVYYCAREGIYWWGQGTTVTVSS VL: DVVVTQTPLSLSVTPGQPASISCRSSQSLVHSNGNTFLHWYLQKPGQSPQLLIYTVSNRFSGVPDRFSGSGSGTDFTLKISRVEAEDVGVYFCSQTTHVPWTFGGGTKLEIK
assay_value: 3.2
--
binder: P1AE1006, humanized anti-CD40 antibody VH1c/VL1b, huIgG1_LALA_PG (antibody, V domains shown, huIgG1 with effector silent Fc (P329G, L234A, L235A)) VH: QVQLVQSGAEVKKPGASVKVSCKASGYSFTGYYIHWVRQAPGQSLEWMGRVIPNAGGTSYNQKFKGRVTLTVDKSISTAYMELSRLRSDDTAVYYCAREGIYWWGHGTTVTVSS VL: DIVVTQTPLSLSVTPGQPASISCRSSQSLVHSNGNTFLHWYLQKPGQSPQLLIYTVSNRFSGVPDRFSGSGSGTDFTLKISRVEAEDVGVYFCSQTTHVPWTFGGGTKVEIK
assay_value: 2.6
